Tested on: TO-3-N3-2 (biotin conjugate)
experiment-summary: pull-down binding Z-score (relative to library population); higher = stronger binding
details: RNA library: Library-2
measurement-type: pull-down binding Z-score
Give only the figure.

Answered examples (5):
[
  {
    "sequence": "CUGAGUAACUUGUGCUUAUAACUCAG [hsa-mir-5000]",
    "measurement-type": "pull-down binding Z-score",
    "result-number": 0.379
  },
  {
    "sequence": "GAGCCCUGAGGGGCUC [hsa-mir-6087]",
    "measurement-type": "pull-down binding Z-score",
    "result-number": -0.303
  },
  {
    "sequence": "AUGUACAUCUUCUUUGCAUCAUUUUAUUAUGUAUGGAAAAGUUAUGUGCAU",
    "measurement-type": "pull-down binding Z-score",
    "result-number": -0.603
  },
  {
    "sequence": "GUGAACAUUGCAU [hsa-mir-4301]",
    "measurement-type": "pull-down binding Z-score",
    "result-number": -0.219
  },
  {
    "sequence": "CAAUAGUAAAAAGACAACCUGUUG [hsa-mir-3133]",
    "measurement-type": "pull-down binding Z-score",
    "result-number": 0.0706
  }
]

Entry under review: GUAGAUUGAAAGCCCUAAUUUUAC [hsa-mir-3941] . Reported pull-down binding Z-score? 0.306

Entry under review: CUUUGUCUGACUACAAUAUUCAAAAG [hsa-mir-4426] . Reported pull-down binding Z-score? 0.0275

Entry under review: AGGGGACACGGGCAAAGACUUGGGGGUUCCUGGGACCCUCAGACGUGUGUCCUCU [hsa-mir-877] . Reported pull-down binding Z-score? 0.297

Entry under review: CAGGGGUUCUGAUAAACCCUUC [hsa-mir-6738] . Reported pull-down binding Z-score? -0.3

Entry under review: GUUAAAAUGUUUGAUGCUUACGUUAAUACGUUUUCAUCAACUUUUAAC . Reported pull-down binding Z-score? -0.247

Entry under review: CAUCAUAUGCAGCUUUUGCUACUGCUCAAGAAGCUUAUGAGCAGGCUGUUGCUAAUGGUG . Reported pull-down binding Z-score? -0.315

* * *

Test system: G-clamp-N3 (biotin conjugate)
experiment-summary: pull-down binding Z-score (relative to library population); higher = stronger binding
details: RNA library: Library-1 (pre-miRNA loops + repeats)
Assign class 1 to entries whose pull-down binding Z-score meets or exceeds -0.4; assign class 0 to the rest.

[
  {
    "sequence": "GGCCUGGGAUUCCUGCCUUCUAGGUC [hsa-mir-8078]",
    "category": "class 1"
  },
  {
    "sequence": "GGUGCAAAGCCUGCCCGCCCC [hsa-mir-5090]",
    "category": "class 0"
  },
  {
    "sequence": "GGAAAGGGGAUGCAGAGCCCUGCC [hsa-mir-4647]",
    "category": "class 1"
  },
  {
    "sequence": "CUGAGGACAUGCAGUUUCAG [hsa-mir-7702]",
    "category": "class 1"
  },
  {
    "sequence": "AGACCUUCCUUCCUUGUCU [hsa-mir-3163]",
    "category": "class 0"
  }
]

Hi, just wondering whether GAGCCUUAAAGGAUGAGGUA [hsa-mir-4280] shows pull-down binding Z-score of -0.4 or higher. class 0

Hi, just wondering whether GUGGACAGAGGCAAAACUCUAACUUC [hsa-mir-6078] shows pull-down binding Z-score of -0.4 or higher. class 0

Hi, just wondering whether UAGGUUGUGUGCUGUCCAGCCUG [hsa-mir-26b] shows pull-down binding Z-score of -0.4 or higher. class 0

Hi, just wondering whether GUGAGCGCAGGUCUUUGGCAC [hsa-mir-4450] shows pull-down binding Z-score of -0.4 or higher. class 1

Hi, just wondering whether UUUCUCUUGUCCAAAGGAAAAGAAG [hsa-mir-524] shows pull-down binding Z-score of -0.4 or higher. class 0

Hi, just wondering whether AGAACAGAUAUAUCCACAGUACACUUGGCUGUUCU [hsa-mir-4753] shows pull-down binding Z-score of -0.4 or higher. class 1

Hi, just wondering whether UGGUGGGAGAGGAGCCCCACUGUGGAAGUCUGACCCCCACA [hsa-mir-6785] shows pull-down binding Z-score of -0.4 or higher. class 0

Hi, just wondering whether UCCUGGGAAGCAUGGUAGCCAGGA [hsa-mir-5192] shows pull-down binding Z-score of -0.4 or higher. class 1

Hi, just wondering whether UGUCAUUACUUUUAAUGGUA [hsa-mir-548h-1] shows pull-down binding Z-score of -0.4 or higher. class 0

Hi, just wondering whether GAAGCUGUAAGGUGUUCAGAGGAGCUUU [hsa-mir-30e] shows pull-down binding Z-score of -0.4 or higher. class 1

Hi, just wondering whether GGGUCAGUGGCAGAGCCAGGCAGAUGCUGACCC [hsa-mir-6832] shows pull-down binding Z-score of -0.4 or higher. class 1

Hi, just wondering whether UUGAUGUCAGGUUAUCCCCAAGCAUAACCUCAC [hsa-mir-4639] shows pull-down binding Z-score of -0.4 or higher. class 0

Hi, just wondering whether GAACUUUUACGGUGAACCAGGAGGUUC [hsa-mir-629] shows pull-down binding Z-score of -0.4 or higher. class 0

Hi, just wondering whether AUGAGAAAUUGGUUUCAA [hsa-mir-8063] shows pull-down binding Z-score of -0.4 or higher. class 1

Hi, just wondering whether CAUGCAGGCCACACUGACGGUAACGUUGCAGG [hsa-mir-431] shows pull-down binding Z-score of -0.4 or higher. class 1

Hi, just wondering whether CAUGAUUUGGAAAAAUUACUG [hsa-mir-6128] shows pull-down binding Z-score of -0.4 or higher. class 0

Hi, just wondering whether UGGCGACACUCGCGCCAGCUCCCGGGACGGCUGGGCUCGGGCUGGUCGCCGA [hsa-mir-7845] shows pull-down binding Z-score of -0.4 or higher. class 1

Hi, just wondering whether CAGAGGCUGGCUUUCCAAAACUCUG [hsa-mir-1913] shows pull-down binding Z-score of -0.4 or higher. class 1

Hi, just wondering whether CAGAGGCAUCGGGUCAG [hsa-mir-4746] shows pull-down binding Z-score of -0.4 or higher. class 1

Hi, just wondering whether UGAGGAGUAGAACACUCCUUA [hsa-mir-491] shows pull-down binding Z-score of -0.4 or higher. class 1

Hi, just wondering whether UGUUCACUUUCUAUAUGAUGAAUA [hsa-mir-656] shows pull-down binding Z-score of -0.4 or higher. class 0

Hi, just wondering whether GGCGGGCGGCGGUGCCCGUC [hsa-mir-4449] shows pull-down binding Z-score of -0.4 or higher. class 1

Hi, just wondering whether UUAUACCUGAUGCUCACGUAUAA [hsa-mir-208a] shows pull-down binding Z-score of -0.4 or higher. class 0
